Can you tell me log10(EC50) for the items I'm about to list?
Tested on: Wnt/β-catenin signaling pathway (Wnt-responsive SP5 promoter luciferase reporter in SW480 cells)
experimental-protocol: Wnt reporter (SP5 promoter-firefly luciferase) activation assay in SW480 cells
Type: cell-based
applied-conditions: Homo sapiens; SW480 colon cancer cells with SP5 promoter luciferase reporter; 24 h after compound addition; normalized to DMSO; concentration at half maximal activation
Kindly note that the scale is log10 and the underlying EC50 is in nM.

Exercise: Fill in the blank: the reported log10(EC50) of `COc1ccccc1C(=O)CCC(=O)c1ccc2[nH]ccc2c1` is ____.
Solution: 1.23

Exercise: Requested field: log10(EC50). Item: `O=C(CCC(=O)c1ccc2c(c1)OC(F)(F)O2)c1ccccc1`
Solution: 2.69

Exercise: Recorded log10(EC50) of `Cc1ccccc1C(=O)CCC(=O)c1cccs1` , please.
Solution: 1.74

Exercise: Can you look up the measured log10(EC50) of `O=C(CCC(=O)c1ccccc1C(F)(F)F)c1ccc2c(c1)SCCO2` for me?
Solution: 0.85

Exercise: Return reported log10(EC50); argument: `COc1ccccc1C(=O)CCC(=O)c1cccc2c1OCCO2`
Solution: 2.90

Exercise: Entry under review: `O=C(CCC(=O)c1cccc2c1OCCO2)c1cccc(F)c1` . Reported log10(EC50)?
Solution: 2.83

Exercise: What value of log10(EC50) has been recorded for this entry: `O=C(CCC(=O)c1ccc2c(c1)OCCO2)c1ccncc1`
Solution: 1.95

Exercise: Which value of log10(EC50) has been reported for `O=C(CCC(=O)c1ccccc1C(F)(F)F)c1cccs1` in the records?
Solution: 2.53

Exercise: I am curious: what log10(EC50) value has been reported for `O=C(CCC(=O)c1ncccc1Cl)c1ccc2c(c1)OCCO2` ?
Solution: 0.33

Exercise: Quick one: log10(EC50) for `O=C(CCC(=O)c1ccco1)c1ccc2occc2c1` ?
Solution: 2.63

Exercise: # input compound: `O=C(CCC(=O)c1ccccc1C(F)(F)F)c1ccc2c(c1)OCO2` ; wanted: its log10(EC50)
Solution: 0.30

Exercise: Recorded log10(EC50) for `O=C(CCC(=O)c1ccccc1C(F)(F)F)c1ccc2occc2c1` , please?
Solution: 0.95

Exercise: What does the data say about its log10(EC50)? Entry: `O=C(CCC(=O)c1ccc2c(c1)SCCO2)c1ccc(F)cc1`
Solution: 1.49

Exercise: // returns reported log10(EC50) for input `Cc1cccc(C(=O)CCC(=O)c2ccc3c(c2)OCCO3)c1`
Solution: 2.55

---

Tested on: Wnt/β-catenin signaling pathway (Wnt-responsive SP5 promoter luciferase reporter in SW480 cells)
experimental-protocol: Wnt reporter (SP5 promoter-firefly luciferase) activation assay in SW480 cells
Assay type: cell-based
applied-conditions: Homo sapiens; SW480 colon cancer cells with SP5 promoter luciferase reporter; 24 h after compound addition; normalized to DMSO; concentration at half maximal activation
property-label: pEC50
To interpret pEC50, take it as minus log10 of a concentration measured in moles per litre.

Exercise: Reported pEC50 for O=C(CCC(=O)c1ccccc1F)c1ccc2[nH]cnc2c1 [Compound 265] : what is it?
Solution: 6.70

Exercise: For the compound COc1ccc(C(=O)CCC(=O)c2ccc(C)cc2)cc1OC [Compound 426] , what pEC50 is on record?
Solution: 5.06

Exercise: Look up pEC50: COc1ccc(C(=O)CCC(=O)c2ccncn2)cc1OC [Compound 432]
Solution: 5.32

---

Tested on: Wnt/β-catenin signaling pathway (Wnt-responsive SP5 promoter luciferase reporter in SW480 cells)
experimental-protocol: Wnt reporter (SP5 promoter-firefly luciferase) activation assay in SW480 cells
Type: cell-based
applied-conditions: Homo sapiens; SW480 colon cancer cells with SP5 promoter luciferase reporter; 24 h after compound addition; normalized to DMSO; concentration at half maximal activation
Method: Compounds that enhance the Wnt activity, or Activators, were assayed as follows. […] Cultured SW480 cells bearing a reporter construct were distributed at approximately 10,000 cells per well into 384- or 96-well multiwell plates. […] Twenty-four hours after the addition of compound, reporter activity for luciferase was assayed, for example, by addition of the BrightGlo luminescence reagent (Promega) and the Victor3 plate reader (Perkin Elmer). […]
property-label: EC50 (nM)
Give the number; nM is assumed, so skip it.

Exercise: Value lookup for EC50; key = `COc1cccc(C(=O)CCC(=O)c2ccc3c(c2)OCCO3)c1`
Solution: 192

Exercise: Bench note: what EC50 did `COc1ccccc1C(=O)CCC(=O)c1cccs1` show?
Solution: 106

Exercise: Using the record for `Cc1ccc(C(=O)CCC(=O)c2ccc3occc3c2)cc1` , report its EC50.
Solution: 2890

Exercise: Tell me the measured EC50 of `O=C(CCC(=O)c1cccs1)c1ccc2c(c1)CCCO2` , please.
Solution: 13

Exercise: Quick one: EC50 of `O=C(CCC(=O)c1cccs1)c1ccc2[nH]ccc2c1` ?
Solution: 37

---

Assign EC50 to each entry below.
System: Wnt/β-catenin signaling pathway (Wnt-responsive SP5 promoter luciferase reporter in SW480 cells)
experimental-protocol: Wnt reporter (SP5 promoter-firefly luciferase) activation assay in SW480 cells
Type: cell-based
applied-conditions: Homo sapiens; SW480 colon cancer cells with SP5 promoter luciferase reporter; 24 h after compound addition; normalized to DMSO; concentration at half maximal activation
// return numeric value only (unit: nM, not printed)

Exercise: I am curious: what EC50 value has been reported for O=C(CCC(=O)c1ccc2c(c1)OCO2)c1ccccc1 [Compound 222] ?
Solution: 3

Exercise: Requested field: EC50. Item: O=C(CCC(=O)c1ncccn1)c1ccc2c(c1)CCCC2 [Compound 737]
Solution: 22

Exercise: Query (compound): Cc1ccc(C(=O)CCC(=O)c2ccc3c(c2)OCCO3)cc1 [Compound 344] ; field requested: EC50
Solution: 307

Exercise: Could you tell me which EC50 is on file for O=C(CCC(=O)c1ccc2c(c1)OCCO2)c1cccnc1 [Compound 14] ?
Solution: 306

Exercise: Report EC50 for O=C(CCC(=O)c1ncccc1F)c1ccc2c(c1)OCCO2 [Compound 569] please.
Solution: 1.96

Exercise: I am curious: what EC50 value has been reported for O=C(CCC(=O)c1ccc2[nH]cnc2c1)c1ccccc1 [Compound 274] ?
Solution: 6800

Exercise: GET /values?readout=EC50&item= O=C(CCC(=O)c1ccccc1F)c1ccc2ocnc2c1 [Compound 291]
Solution: 125

Exercise: Return reported EC50; argument: O=C(CCC(=O)c1ccccc1F)c1ccc2[nH]ncc2c1 [Compound 495]
Solution: 8

---

Give pEC50 for every item shown.
System: Wnt/β-catenin signaling pathway (Wnt-responsive SP5 promoter luciferase reporter in SW480 cells)
experimental-protocol: Wnt reporter (SP5 promoter-firefly luciferase) activation assay in SW480 cells
Assay type: cell-based
applied-conditions: Homo sapiens; SW480 colon cancer cells with SP5 promoter luciferase reporter; 24 h after compound addition; normalized to DMSO; concentration at half maximal activation
Reminder that pEC50 means the negative base-10 logarithm of the concentration expressed in mol/L.

Exercise: May I ask what pEC50 has been recorded for `Cc1ccccc1C(=O)CCC(=O)c1n[nH]c2ccccc12` ?
Solution: 6.83

Exercise: Given `O=C(CCC(=O)c1ccc2sccc2c1)c1ccccc1` , state its recorded pEC50.
Solution: 7.36

Exercise: Would you mind telling me what pEC50 value was observed for `O=C(CCC(=O)c1ccc2[nH]ncc2c1)c1ccc(F)cc1` ?
Solution: 7.32

Exercise: Value lookup for pEC50; key = `O=C(CCC(=O)c1ccco1)c1ccc2c(c1)OCCO2`
Solution: 7.62

Exercise: Name the recorded pEC50 for `O=C(CCC(=O)c1ccccc1F)c1ccc2occc2c1` .
Solution: 7.74

Exercise: Quick check: pEC50 of `Cc1ccccc1C(=O)CCC(=O)c1c[nH]c2ccccc12` ?
Solution: 6.19

Exercise: Give its pEC50 value. Item: `COc1cccc(C(=O)CCC(=O)c2ccc3c(c2)OCO3)c1`
Solution: 6.46

---

Tested on: Wnt/β-catenin signaling pathway (Wnt-responsive SP5 promoter luciferase reporter in SW480 cells)
experimental-protocol: Wnt reporter (SP5 promoter-firefly luciferase) activation assay in SW480 cells
Assay type: cell-based
applied-conditions: Homo sapiens; SW480 colon cancer cells with SP5 promoter luciferase reporter; 24 h after compound addition; normalized to DMSO; concentration at half maximal activation
pEC50: −log10 of the molar value.
Given measured pEC50, output rule met if it is greater than or equal to 7 and rule not met if not.

Exercise: Identify whether the reported pEC50 of the following compound is 7 or greater: O=C(CCC(=O)c1ccccc1C(F)(F)F)c1ccc2[nH]ccc2c1 [Compound 249]
Solution: rule met

Exercise: Please check the record Cc1ccccc1C(=O)CCC(=O)c1ccc2c(c1)OCO2 [Compound 368] and state if its pEC50 is at or above 7.
Solution: rule met

Exercise: Hi, just wondering whether Cc1ccccc1C(=O)CCC(=O)c1ccccn1 [Compound 544] shows pEC50 of 7 or higher.
Solution: rule not met

Exercise: State whether the measured pEC50 reaches 7, counting equality as reaching it, for COc1ccccc1C(=O)CCC(=O)c1ccc2c(c1)OCCO2 [Compound 12]
Solution: rule met

Exercise: Reported pEC50 reaches at least 7 for O=C(CCC(=O)c1ccccc1F)c1ccc2[nH]ccc2c1 [Compound 252] ?
Solution: rule met

Exercise: State whether the measured pEC50 reaches 7, counting equality as reaching it, for O=C(CCC(=O)c1ccc2c(c1)OCCO2)c1cncnc1 [Compound 345]
Solution: rule not met

Exercise: Decide: pEC50 of O=C(CCC(=O)c1ccc2c(c1)SCCO2)c1ccc(C(F)(F)F)cc1 [Compound 18] >= 7?
Solution: rule not met

Exercise: State whether the measured pEC50 reaches 7, counting equality as reaching it, for COc1ccccc1C(=O)CCC(=O)c1ccc2c(c1)OCO2 [Compound 216]
Solution: rule met

Exercise: Kindly determine if pEC50 recorded for COc1cccc(C(=O)CCC(=O)c2c[nH]c3ccccc23)c1 [Compound 320] is above or exactly 7.
Solution: rule not met

Exercise: Reported pEC50 at or above 7? COc1ccc(C(=O)CCC(=O)c2cncnc2)cc1OC [Compound 430]
Solution: rule not met

Exercise: Could you tell me if the measured pEC50 of COc1ccccc1C(=O)CCC(=O)c1c[nH]c2ccccc12 [Compound 319] reaches 7 or more?
Solution: rule not met

Exercise: Quick check, pEC50 >= 7? O=C(CCC(=O)c1ccc2[nH]ccc2c1)c1ccccc1 [Compound 261]
Solution: rule met

Exercise: # bool: pEC50 of O=C(CCC(=O)c1cccc2c1OCCO2)c1ccccc1 [Compound 248] >= 7
Solution: rule not met

Exercise: Entry O=C(CCC(=O)c1ccccn1)c1ccc2[nH]ccc2c1 [Compound 258] : is its pEC50 no less than 7?
Solution: rule met

Exercise: Confirm if pEC50 reported for the compound O=C(CCC(=O)c1c[nH]c2ccccc12)c1ccccc1C(F)(F)F [Compound 314] is 7 or above.
Solution: rule met

Exercise: Exam item: decide whether the reported pEC50 for COc1ccccc1C(=O)CCC(=O)c1ccccn1 [Compound 547] is at least 7.
Solution: rule not met
